A collection of sequences and their measured PBM binding z-score
tested on: FXR:RXRa (NR concentration 270 nM, RXRa partner concentration 90 nM); assay: PBM binding z-score (relative to random genomic background probes); higher = stronger binding; sequences stand for … in GC…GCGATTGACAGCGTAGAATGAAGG
Assay Metric: PBM binding z-score

                    construct_sequence  value_reported
 0  GCTAGCTGGCCATTTGGGTCACTCAATGACGGGC          -0.265
 1  GATACAGGGTCAGTTAGAGGCCAGAGTATGGAAA            4.02
 2  CAAACGAGGGCATGAGTTGATAGCAAATGCCGAT           0.718
 3  CCTACTGGGCCATCAGGTCATGGATATCAACGTT            1.24
 4  ACAACGAGGGCACGCTGAGTTGATAGCAGAGTAG           0.762
 5  CCGACTGGGGCAGAAAGGTTACCACACCATCCGG           0.286
 6  CATACAGGGTCAGCTAGGCCAGTGTAGGGACGGC            4.16
 7  AGAATGAGGTTAAAATCAGGGAAACAGAATACAT            2.65
 8  ACAGACAGGTGAGTGAAGGTAACTCCGCTGGACG           0.216
 9  CCTAGTTGGTCAAGGTCACACAAGCTATAGGTAC            4.29
10  CGACCAAGGTGAACAAGGTCGTTGATTACTATTC            1.09
11  ACTCGGAGGCCAAAGGTCAGAGCTACGCCAGTGA            4.88
